Listing of entries alongside the reported MBC.
Tested on: Listeria monocytogenes CGMCC 1.1075
Assay type: cell-based
experimental parameters: CGMCC 1.1075, 24 h
Where no end group is shown, it is not given here.

substance	value observed
LRRLRLRLL-NH2 [L3]	32 µM

Turning now to a further substance:
Form entry - test system: Listeria monocytogenes CGMCC 1.1075; read-out: MBC; substance: RWRWRWRWW-NH2 [W5]
4 µM

---

Tested on: Listeria monocytogenes CGMCC 1.1075
Type: cell-based
experimental parameters: CGMCC 1.1075, 24 h
Experimental: The antimicrobial activities of the peptides were measured using a method adapted from the National Committee for Clinical Laboratory Standards (NCCLS) with some modifications ([Chou et al., 2016]). The specific procedure for these assays has been previously described. […] After incubation for 24 h at 37°C, the MICs were determined to be the lowest peptide concentration that inhibited 95% of the bacterial growth by monitoring the absorbance at 492 nm using a microplate reader. […]
Where no end group is shown, it is not given here.
measured quantity: MIC (µM)
Field format: number, assumed µM, no unit text.

// below: answered substances
substance	unit symbol	MIC
RWRWRWRWW-NH2 [W5]	µM	2
RRLLLRLRL-NH2 [L8]	µM	4
RLRLRLRLL-NH2 [L5]	µM	4
WRRRWWWWR-NH2 [W6]	µM	2
WWRWWRRRW-NH2 [W1]	µM	8

Form entry - test system: Listeria monocytogenes CGMCC 1.1075; read-out: MIC; substance: RRWWWWRRW-NH2 [W7]
2

And then RRWWWRWRW-NH2 [W8] , what is it?
2

And then RLRLRRLLL-NH2 [L9] , what is it?
16

And then RRLLLLRRL-NH2 [L7] , what is it?
16

And then LRRRRLLLL-NH2 [L11] , what is it?
8
